Origin of the recorded values: paper PMC7080406

Biological target: MT1 (Homo sapiens, UniProt P48039)
Construct: expressed in transfected cells; host or cells: HEK293T (ATCC CRL-11268), transient transfection
Sequence (P48039 whole entry): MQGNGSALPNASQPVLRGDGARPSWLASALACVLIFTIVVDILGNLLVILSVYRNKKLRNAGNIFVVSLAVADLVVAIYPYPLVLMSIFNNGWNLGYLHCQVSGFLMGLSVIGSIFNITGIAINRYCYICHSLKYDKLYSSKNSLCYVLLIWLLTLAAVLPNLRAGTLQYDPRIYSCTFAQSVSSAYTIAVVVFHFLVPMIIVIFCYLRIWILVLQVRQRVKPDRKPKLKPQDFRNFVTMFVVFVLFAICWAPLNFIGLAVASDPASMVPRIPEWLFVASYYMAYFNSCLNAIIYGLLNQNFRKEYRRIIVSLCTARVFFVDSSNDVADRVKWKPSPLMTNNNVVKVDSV
Assay: GloSensor Gi/o-mediated cAMP production inhibition assay, MT1
Format: cell-based
Conditions: ligand efficiency (based on EC50)
Endpoint: MT1 LE

These solved cases illustrate the format of a correct answer.
# Compound, Reported
data = [
    ("Nc1cc(=O)[nH]c(=S)n1CCc1ccccc1", "0.36 kcal/mol per non-hydrogen atom"),
    ("COc1ccnc(N(C)CCNC(C)=O)n1", "0.69 kcal/mol per non-hydrogen atom"),
    ("NC(=O)c1cc(C(=O)c2ccccc2Cl)c[nH]1", "0.46 kcal/mol per non-hydrogen atom"),
    ("COc1cccc([C@@H]2C[C@H]2CNC(=O)C(N)=O)c1 (racemic)", "0.56 kcal/mol per non-hydrogen atom"),
    ("CC(=O)NCC1CCCCN1c1ccnc(C)n1 (stereo not shown)", "0.53 kcal/mol per non-hydrogen atom"),
]

Query: Reported MT1 LE for COc1cccc(Cn2c(N)cc(=O)[nH]c2=O)c1 : what is it?
Reply: 0.33 kcal/mol per non-hydrogen atom

====

Biological target: MT1 (Homo sapiens)
Construct: expressed in transfected cells; host or cells: HEK293T (ATCC CRL-11268), transient transfection
Test: GloSensor Gi/o-mediated cAMP production inhibition assay, MT1
Type: cell-based
Conditions: read-out: MT1 Emax ± SEM
Endpoint: Emax (%)

Please review the entries below; each comes with its answer.
# Compound, Target entity, Reported
measured = [
    ("NC(=O)c1cc(C(=O)c2ccccc2Cl)c[nH]1 [Compound 47]", "MT1 (Homo sapiens)", 112),
    ("COc1ccc2[nH]cc(CCNC(N)=O)c2c1 [Compound 28, [2-(5-methoxy-1H-indol-3-yl)ethyl]urea]", "MT1 (Homo sapiens)", 95.3),
    ("COc1cccc([C@@H]2C[C@H]2CNC(=O)C(N)=O)c1 (racemic) [Compound 23]", "MT1 (Homo sapiens)", 96.9),
]

a: Nc1cc(=O)[nH]c(=S)n1CCc1ccccc1 [Compound 62]
b: COc1ccnc(N(C)CCNC(C)=O)n1 [Compound 21]
Query: Higher Emax between a and b ? Give the label under which the chosen entry appears.
Reply: b

====

Molecular target: MT2 (Homo sapiens, UniProt P49286)
Sequence (P49286 whole entry): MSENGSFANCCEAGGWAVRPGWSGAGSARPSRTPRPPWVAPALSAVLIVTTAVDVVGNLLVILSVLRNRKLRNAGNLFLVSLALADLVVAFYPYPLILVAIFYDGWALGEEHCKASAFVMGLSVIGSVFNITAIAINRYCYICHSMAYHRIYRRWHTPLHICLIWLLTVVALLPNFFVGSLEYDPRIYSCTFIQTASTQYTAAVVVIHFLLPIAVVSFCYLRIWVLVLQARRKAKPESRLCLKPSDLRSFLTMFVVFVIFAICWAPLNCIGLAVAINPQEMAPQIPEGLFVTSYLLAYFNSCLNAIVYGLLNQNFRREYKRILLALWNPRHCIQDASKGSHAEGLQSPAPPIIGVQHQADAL
Assay: GloSensor Gi/o-mediated cAMP production inhibition assay, MT2
Type: cell-based
Parameters: expressed in transfected cells; host or cells: HEK293T (ATCC CRL-11268), transient transfection
Details: ligand efficiency (based on EC50)
Procedure: Briefly, HEK293 T cells (as above) were transiently co-transfected with receptor (MT1 or MT2) and GloSensor cAMP (Promega) plasmids overnight, plated in Poly-L-Lysine coated 384-well white clear bottom plates in DMEM + 1% dialyzed FBS. Cells were used for assays at a minimum of 6 hr after plating. […] The plates were counted for luminescence after 25 min in a luminescence plate reader. Results were analyzed using GraphPad Prism 7.0.
Endpoint: MT2 LE

# Compound, MT2 LE
measured = [
    ("COC(=O)c1[nH]c2cc(OC)ccc2c1N", "0.68 kcal/mol per non-hydrogen atom"),
    ("Nc1cc(=O)[nH]c(=S)n1CCc1ccccc1", "0.60 kcal/mol per non-hydrogen atom"),
    ("CC(=O)c1sc2nc3c(cc2c1N)CCC3", "0.56 kcal/mol per non-hydrogen atom"),
    ("CC(=O)NCC1CCCCN1c1ccnc(C)n1 (centres unmarked)", "0.58 kcal/mol per non-hydrogen atom"),
    ("COc1cccc([C@@H]2C[C@H]2CNC(=O)C(N)=O)c1 (racemic)", "0.60 kcal/mol per non-hydrogen atom"),
    ("COc1ccc2[nH]cc(CCNC(N)=O)c2c1 [Compound 28, [2-(5-methoxy-1H-indol-3-yl)ethyl]urea]", "0.85 kcal/mol per non-hydrogen atom"),
]

Query: Sample NC(=O)c1cc(C(=O)c2ccccc2Cl)c[nH]1 — what was its MT2 LE?
Reply: 0.66 kcal/mol per non-hydrogen atom

Query: Also check COc1cccc(Cn2c(N)cc(=O)[nH]c2=O)c1
Reply: 0.51 kcal/mol per non-hydrogen atom

Query: Next compound: COc1cccc(CNC(=O)c2ccno2)c1
Reply: 0.57 kcal/mol per non-hydrogen atom

Query: Item: COc1ccnc(N(C)CCNC(C)=O)n1
Reply: 0.83 kcal/mol per non-hydrogen atom

Query: Moving on to COc1cccc(CNc2nc(C3CC3)no2)c1
Reply: 0.53 kcal/mol per non-hydrogen atom
